test: ongoing first phase 1 trial of Compound A (pharmacokinetics); set-up: species or system patients; details: human, in vivo, oral, range, read-out: terminal half-life (range)
READOUT_LABEL: half-life

Measured half-life of CC(C)(C(=O)NCC(F)(F)C(F)(F)F)C(=O)N[C@@H]1C(=O)Nc2ccccc2-c2ccccc21 : 10 to 93 h
